FYI, the data here is from the supplement of paper PMC10126150.

test system: ATP; assay: switch fluorescence ratio, 500 uM ATP over buffer (Cy3 cluster intensity, sum of 5 cycles each) (fold (ratio)); higher = stronger signal-on switching upon ATP binding; sequences stand for … in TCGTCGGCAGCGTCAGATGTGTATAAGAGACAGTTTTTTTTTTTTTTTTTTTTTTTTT…TC; settings: aptamer strand: ATP DNA aptamer (quencher-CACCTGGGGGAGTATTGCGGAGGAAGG + anchor), 100 nM annealed; ATP concentration: 500 uM;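 further: ATP exposure 15 min at 22 °C before imaging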

sequence.record: GGGGGGATTG
system: ATP;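 further: ATP exposure 15 min at 22 °C before imaging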
switch fluorescence ratio: 0.99

sequence.record: CGGGGGAGTC
system: ATP;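 further: ATP exposure 15 min at 22 °C before imaging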
switch fluorescence ratio: 1.02

sequence.record: AGTCTAAATA
system: ATP;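 further: ATP exposure 15 min at 22 °C before imaging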
switch fluorescence ratio: 1.02

sequence.record: AGGAACGCGC
system: ATP;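 further: ATP exposure 15 min at 22 °C before imaging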
switch fluorescence ratio: 1.02

sequence.record: CAATGGACGT
system: ATP;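 further: ATP exposure 15 min at 22 °C before imaging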
switch fluorescence ratio: 0.99

sequence.record: CAAGTTGATG
system: ATP;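 further: ATP exposure 15 min at 22 °C before imaging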
switch fluorescence ratio: 0.982

sequence.record: ACGTTTTGAG
system: ATP;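 further: ATP exposure 15 min at 22 °C before imaging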
switch fluorescence ratio: 1.01

sequence.record: TATATTACCA
system: ATP;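 further: ATP exposure 15 min at 22 °C before imaging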
switch fluorescence ratio: 1.01
